test summary: Quantitative High-Throughput drug screen in 47 multiple myeloma cell lines against the NCATS MIPE library collection: JIM3_ECACC cell viability assay (AID 1918963; further: nearly all actives have a fitted effect of over 35% in size)
condition description: JIM3 myeloma viability, CellTiter-Glo ATP, 48 h; series mostly up to 45.8 µM
Records with an inconclusive call do not appear. Activity calls are given as the source filed them. The call rests on the fitted dose curve; in most records, active means well fitted cell-killing curve with a large enough effect; inconclusive means small, poorly fitted or top-dose-only effect; inactive means no such curve, though single readings can be large or run the other way.
The reply should be one of these categories: 1 (active), -1 (inactive)

> print(dat)
                                        smi  class.label
1  CC(=O)Oc1ccccc1C(=O)Nc1ncc([N+](=O)[O-])s1            1
2  CC(C)OC(=O)OCOP(=O)(CO[C@H](C)Cn1cnc2c(N)ncnc21)OCOC(=O)OC(C)C            1
3     CNS(=O)(=O)Cc1ccc2[nH]cc(CCN(C)C)c2c1           -1
4  CC(=O)[C@H]1CC[C@H]2[C@@H]3CC=C4C[C@@H](O)CC[C@]4(C)[C@H]3CC[C@]12C           -1

Ask | What outcome does the record of this test show for CCn1cc(C(=O)O)c(=O)c2cc(F)c(N3CCNCC3)nc21 ?
Reply | -1
